# Tested on: Italian ryegrass (Lolium mutiflorum)
# TEST METHOD NOTES: Test C postemergence, visual plant response rating
# Type: in vivo
# TEST CONDITIONS: Postemergence, 31 g ai/ha
Please use Met for Ryegrass, Italian plant response rating (0 to 100 scale) under 30 and Not met for everything else, ties included.

- COMPOUND: "C#CCO/N=C(\\c1cc(Cl)cc(Cl)c1Cl)c1c(O)c(C)nn(C)c1=O"
  SYSTEM NAME: "Italian ryegrass (Lolium mutiflorum)"
  CLASSIFICATION: "Met"
- COMPOUND: "C=CCO/N=C(/c1c(O)c(C)nn(C)c1=O)c1cccc2cc(Cl)ccc12"
  SYSTEM NAME: "Italian ryegrass (Lolium mutiflorum)"
  CLASSIFICATION: "Met"
- COMPOUND: "CO/N=C(/c1cccc(/C=C\\Cl)c1)c1c(O)c(C)nn(C)c1=O"
  SYSTEM NAME: "Italian ryegrass (Lolium mutiflorum)"
  CLASSIFICATION: "Met"
- COMPOUND: "CCCCON=C(c1cc(Cl)cc(Cl)c1Cl)c1c(O)c(C)nn(C)c1=O"
  SYSTEM NAME: "Italian ryegrass (Lolium mutiflorum)"
  CLASSIFICATION: "Not met"
- COMPOUND: "CON=C(c1c(OC(C)=O)c(Cl)nn(C)c1=O)c1ccc(F)c2ccccc12"
  SYSTEM NAME: "Italian ryegrass (Lolium mutiflorum)"
  CLASSIFICATION: "Met"
- COMPOUND: "C#CCO/N=C(\\c1cccc(Br)c1)c1c(O)c(C)nn(C)c1=O"
  SYSTEM NAME: "Italian ryegrass (Lolium mutiflorum)"
  CLASSIFICATION: "Not met"
- COMPOUND: "CO/N=C(/c1c(O)cnn(C)c1=O)c1ccc(F)c2ccccc12"
  SYSTEM NAME: "Italian ryegrass (Lolium mutiflorum)"
  CLASSIFICATION: "Met"
- COMPOUND: "Cc1nn(C)c(=O)c(C(=NOC(C)C)c2cc(Cl)cc(Cl)c2F)c1O"
  SYSTEM NAME: "Italian ryegrass (Lolium mutiflorum)"
  CLASSIFICATION: "Not met"
- COMPOUND: "CON=C(c1cc(Cl)cc(Cl)c1F)c1c(O)c(C)nn(C)c1=O"
  SYSTEM NAME: "Italian ryegrass (Lolium mutiflorum)"
  CLASSIFICATION: "Not met"
- COMPOUND: "CO/N=C(\\c1cccc(/C=C/Cl)c1)c1c(O)c(C)nn(C)c1=O"
  SYSTEM NAME: "Italian ryegrass (Lolium mutiflorum)"
  CLASSIFICATION: "Met"
- COMPOUND: "CCON=C(c1cc(Cl)cc(Br)c1)c1c(O)c(C)nn(C)c1=O [Compound 181]"
  SYSTEM NAME: "Italian ryegrass (Lolium mutiflorum)"
  CLASSIFICATION: "Not met"
- COMPOUND: "C=CCON=C(c1cc(Cl)cc(Cl)c1Cl)c1c(O)c(C)nn(C)c1=O"
  SYSTEM NAME: "Italian ryegrass (Lolium mutiflorum)"
  CLASSIFICATION: "Not met"
- COMPOUND: "CO/N=C(\\c1cc(Cl)cc(Br)c1)c1c(O)c(C)nn(C)c1=O"
  SYSTEM NAME: "Italian ryegrass (Lolium mutiflorum)"
  CLASSIFICATION: "Not met"
- COMPOUND: "CCO/N=C(\\c1c(O)c(Cl)nn(C)c1=O)c1ccc(F)c2ccccc12"
  SYSTEM NAME: "Italian ryegrass (Lolium mutiflorum)"
  CLASSIFICATION: "Met"
